- Assayed Target: human melanocortin-4 receptor (recombinant hMC4-R) (human, UniProt P32245 1-332)
- Sequence (P32245 whole entry): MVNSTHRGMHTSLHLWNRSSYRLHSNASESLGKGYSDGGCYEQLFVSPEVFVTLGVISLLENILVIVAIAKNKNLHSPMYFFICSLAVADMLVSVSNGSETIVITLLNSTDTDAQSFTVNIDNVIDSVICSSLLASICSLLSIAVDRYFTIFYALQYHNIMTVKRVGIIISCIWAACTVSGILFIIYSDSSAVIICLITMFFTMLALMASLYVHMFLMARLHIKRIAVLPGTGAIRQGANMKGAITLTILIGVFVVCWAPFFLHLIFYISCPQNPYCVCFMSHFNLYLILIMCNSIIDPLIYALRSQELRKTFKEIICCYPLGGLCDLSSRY
- Assay Method Text: cell-based or functional assay
Numbered stars: 1 amine (or outer) side, 2 acyl side, 3 side chain; on linkers, the order of the positions; unused ones are H or OH. Bridge positions count the residues as written; N and C are the ends. Square brackets hold non-standard residues; d marks the D form. Ser(Bzl) = O-benzyl-serine, O=C([C@H](COCc1ccccc1)N[*:1])[*:2]; Orn = NCCC[C@H](N)C(=O)O
Recorded Emax (%), cAMP values for a group of binders are listed next.
Endpoint Name: Emax (%), cAMP

[
  {
    "Binder": "Ac-[dR][Orn]H[dF]RWE-NH2 (lactam 2-7) [Peptide No. 39: Ac-D-Arg-cyclo(Orn-His-D-Phe-Arg-Trp-Glu)-NH2]",
    "Endpoint Name": "Emax (%), cAMP",
    "Obs Value": 103
  },
  {
    "Binder": "Ac-RD[Ser(Bzl)][dF]RWK-OH (lactam 2-7, also called Peptide Structure (Asp...Lys) in the rows of No. 17 and No. 48) [Asp...Lys analog of peptides No. 17 and No. 48: Ac-Arg-cyclo(Asp-Ser(Bzl)-D-Phe-Arg-Trp-Lys)-OH]",
    "Endpoint Name": "Emax (%), cAMP",
    "Obs Value": 38
  },
  {
    "Binder": "Ac-RDH[dF]RWK-NH2 (lactam 2-7) [Asp...Lys analog of peptides No. 4 and No. 38: Ac-Arg-cyclo(Asp-His-D-Phe-Arg-Trp-Lys)-NH2]",
    "Endpoint Name": "Emax (%), cAMP",
    "Obs Value": 83
  },
  {
    "Binder": "Ac-RDQ[dF]RWK-NH2 (lactam 2-7) [Asp...Lys analog of peptides No. 12 and No. 44: Ac-Arg-cyclo(Asp-Gln-D-Phe-Arg-Trp-Lys)-NH2]",
    "Endpoint Name": "Emax (%), cAMP",
    "Obs Value": 85
  }
]
